- system: Coprinus cinereus peroxidase (CiP) (Coprinopsis cinerea)
- Construct: made in house
- Sequence (P28314 21-363): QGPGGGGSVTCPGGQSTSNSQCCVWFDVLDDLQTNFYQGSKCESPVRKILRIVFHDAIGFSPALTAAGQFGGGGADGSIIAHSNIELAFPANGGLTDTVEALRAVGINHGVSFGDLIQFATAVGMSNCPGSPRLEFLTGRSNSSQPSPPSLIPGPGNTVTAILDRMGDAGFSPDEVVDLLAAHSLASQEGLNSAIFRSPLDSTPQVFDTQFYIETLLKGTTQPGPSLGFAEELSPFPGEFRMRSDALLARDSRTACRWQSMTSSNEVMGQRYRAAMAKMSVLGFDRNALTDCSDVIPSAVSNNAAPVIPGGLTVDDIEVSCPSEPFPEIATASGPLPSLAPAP
- assaySummary: Initial bleaching of Direct Blue 1 by CiP with enhancer (Example 1)
- Assay type: biochemical
- experimentalParameters: pH 8.5; 2 nM CiP, 10 μM enhancer, 20 μM H2O2, 30° C., 610 nm
readoutType: bleaching (initial bleaching of Direct Blue 1)

Examples with answers:
compound	observedMeasurement
CN1c2ccccc2Sc2ccccc21 [10-methyl-phenothiazine]	240 -ΔmAbs/min
COC(=O)CCN1c2ccccc2Sc2ccccc21 [methyl-10-phenothiazine-propionate]	72 -ΔmAbs/min
O=C(O)CCN1c2ccccc2Sc2ccccc21 [10-phenothiazine propionic acid, 10-phenothiazinepropionic acid]	486 -ΔmAbs/min
CC(=O)c1ccc2c(c1)N(C)c1ccccc1S2 [2-acetyl-10-methyl-phenothiazine]	27 -ΔmAbs/min

Alright, here's another compound for you.
Measured on Coprinus cinereus peroxidase (CiP) (Coprinopsis cinerea), CCN1c2ccccc2Sc2c(C(=O)O)cccc21 [10-ethyl-4-phenothiazine-carboxylic acid, 10-ethyl-4-phenothiazinecarboxylic acid] has a documented bleaching (initial bleaching of Direct Blue 1) of 816 -ΔmAbs/min

* * *

- system: Coprinus cinereus peroxidase (CiP) (Coprinopsis cinerea)
- Construct: made in house
- Sequence (P28314 21-363): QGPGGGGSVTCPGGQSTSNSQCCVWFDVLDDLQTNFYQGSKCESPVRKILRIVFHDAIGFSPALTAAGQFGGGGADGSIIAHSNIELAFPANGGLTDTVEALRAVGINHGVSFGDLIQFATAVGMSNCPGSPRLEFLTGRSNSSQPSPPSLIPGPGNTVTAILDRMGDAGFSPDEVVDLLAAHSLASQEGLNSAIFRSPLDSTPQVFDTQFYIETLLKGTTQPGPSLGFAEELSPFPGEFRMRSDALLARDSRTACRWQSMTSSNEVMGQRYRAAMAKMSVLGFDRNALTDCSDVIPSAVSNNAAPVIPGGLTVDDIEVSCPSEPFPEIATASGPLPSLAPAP
- assaySummary: Initial bleaching of Direct Blue 1 by CiP with enhancer (Example 1)
- Format: biochemical
- experimentalParameters: pH 10.5; 1 nM CiP, 10 μM enhancer, 20 μM H2O2, 30° C., 610 nm
This section presents compounds with their documented bleaching (initial bleaching of Direct Blue 1) values.

Examples with answers:
compound	system	observedMeasurement
CC(=O)c1ccc2c(c1)N(C)c1ccccc1S2	Coprinus cinereus peroxidase (CiP) (Coprinopsis cinerea)	25 -ΔmAbs/min
O=C(O)CCN1c2ccccc2Sc2ccccc21	Coprinus cinereus peroxidase (CiP) (Coprinopsis cinerea)	468 -ΔmAbs/min
CCN1c2ccccc2Sc2c(C(=O)O)cccc21	Coprinus cinereus peroxidase (CiP) (Coprinopsis cinerea)	864 -ΔmAbs/min
CN1c2ccccc2Sc2ccccc21	Coprinus cinereus peroxidase (CiP) (Coprinopsis cinerea)	480 -ΔmAbs/min

Alright, here's another compound for you.
The compound COC(=O)CCN1c2ccccc2Sc2ccccc21 [methyl-10-phenothiazine-propionate] showed bleaching (initial bleaching of Direct Blue 1) equal to 99 -ΔmAbs/min
